- System: Plasmodium berghei
- method: Screen against P. berghei liver stage (PbLuc), transformed with Luciferase, at 10uM
- Format: functional, HepG2
- cond: tested at 10 uM
The campaign covered roughly 69,000 compounds. About 8,600 (12%) showed an effect of 50% or more. The list comes from a sample in which strong results are over-represented; it also holds close analogues and randomly drawn compounds.
Lab note: class by INHIBITION, see small value: < 10%; mid value: ≥ 10% and < 40%; large value: ≥ 40%

Solved cases below.
# molecule, qualitative.label
data = [
    ("c1nc2c(c(N3CCOC(Cn4cncn4)C3)n1)CCC2 (stereo not given)", "small value"),
    ("O=C(c1ccnn1COc1ccc(Cl)cc1)N1CCOCC1", "large value"),
]

[ask] Field: class (INHIBITION) — entry: O=C(CCS(=O)(=O)c1ccccc1)N1CCCC(n2cccn2)C1 (stereo not given)
[reply] mid value

[ask] Looking at c1cnn(CC2CN(c3ncnc4sccc34)CCO2)c1 (stereo not given) , which class would you pick?
[reply] large value

[ask] Kindly identify the class of c1nc(N2CCOC(Cn3cncn3)C2)c2sccc2n1 (stereo not given) .
[reply] large value

[ask] Any idea which band Cc1nnc(N2CCOC(Cn3cccn3)C2)c(C#N)c1C (stereo not given) is in?
[reply] mid value

[ask] Textbook exercise: identify the category of the molecule given here, Cc1ccc(CN2CCCC(c3nn(C)c4nccnc34)C2)s1 (stereo not given) , according to its measured value.
[reply] mid value
